Numbers sourced from PubChem BioAssay.

- Protocol: growth suppression of yeast trafficking mutant, preliminary HTS, modulators of trafficking downstream of Golgi apparatus project, 1536-format plate, OD 615 nm (AID 637)
- Recorded conditions: yeast transport mutant growth, absorbance 615 nm, 18 h; stronger effect = higher value
Assay endpoint: inhibition (%)
Numbers only, in %.

Example entries begin here.
CN(C)c1nc(SCCOC(=O)c2ccccc2)nc(N(C)C)n1
-2.67
C[N+]1=C2CCCCCN2C(O)(c2ccccc2)C1 (configuration not stated)
1.29
CCc1ccc(NC(=O)C2CC(=O)N(C(C)C)C2)cc1 (configuration not stated)
-2.46
COCCNC(=O)c1ccc2c(c1)nc(C)n2-c1cccc(F)c1
4.35
O=C(O)Cn1cc(C(=O)c2ccco2)c2ccccc21
3.61

Respectfully, I request inhibition for each entry included below.
1. Cc1c(C(=O)NCCC2=CCCCC2)oc2ccc(S(=O)(=O)N3CCC4(CC3)OCCO4)cc12
2. Cc1occc1-c1nnc(SCC(=O)N2CCc3ccccc32)o1
3. O=C(CSc1nnc(-c2ccccc2Cl)n1Cc1ccco1)Nc1ccc2c(c1)OCCO2
4. COc1ccccc1Nc1nc2ccccc2[nH]1
5. CC(=O)Nc1ccc(S(=O)(=O)NCC2CCC(C(=O)NCCCN3CCCC3=O)CC2)cc1 (configuration not stated)

[A]
[-11.5, -3.02, -4.75, -7.94, 1.45]

* * *

- Protocol: HUVEC growth inhibition – cell-based, human, primary screen (AID 575);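 further: 100% = median of untreated cell wells with 0.1% DMSO on each plate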
- Recorded conditions: HUVEC proliferation, CellTiter-Glo luminescence, 72 h; at 10 µM; stronger effect = lower value
So I've got a bunch of compounds here, and I need their viability values.
Answers are plain numbers, in %.

Example entries begin here.
CCCCOC(=O)n1c(SCC(=O)N(CC)CC)nc2ccccc21
81.8
CC(C)(C)NC(=O)Cn1nnnc1-c1nonc1N
109
Cc1nnc(SCC(=O)Nc2ccc(Br)cn2)[nH]c1=O
98.7
Clc1ccc(Cc2nn3c(-c4ccncc4)nnc3s2)cc1
101
CC1(C)OC(=O)C(=CNC(CCC(N)=O)C(=O)O)C(=O)O1 (stereo unspecified)
109

Respectfully, I request viability for each entry included below.
1. Cc1nn(C)c(C)c1CNC(=O)c1cc2n(n1)C(C(F)(F)F)CC(c1cccs1)N2 (stereo unspecified)
2. O=C1CC(N2CCC(C(=O)N3CCCCC3)CC2)C(=O)N1 (stereo unspecified)

[A]
107
94.4

Respectfully, I request viability for each entry included below.
1. Cc1nnc(SCCn2c(N3CC(C)CC(C)C3)nc3c2c(=O)n(C)c(=O)n3C)s1 (stereo unspecified)
2. CC(=O)Nc1ccc(OCC(O)Cn2nc(C)nc2C)cc1 (stereo unspecified)

[A]
[93.8, 81.3]

Respectfully, I request viability for each entry included below.
1. O=C(Nc1nnc(COc2ccc(F)cc2)s1)c1cccs1
2. CCN(CC)S(=O)(=O)c1ccc2c(c1)nc(SCC(=O)NC1CC1)n2-c1ccccc1OC

[A]
60
67.8

* * *

- Protocol: growth suppression of yeast trafficking mutant, preliminary HTS, modulators of trafficking downstream of Golgi apparatus project, 1536-format plate, OD 615 nm (AID 637)
- Recorded conditions: yeast transport mutant growth, absorbance 615 nm, 18 h; stronger effect = higher value
Assay endpoint: inhibition (%)
Numbers only, in %.

Example entries begin here.
O=C(Nc1ccc2c(c1)nc1n2CCSC1)c1ccccc1
-6
COc1ccccc1-n1c(-c2cccnc2)n[nH]c1=S
-2.95
COc1cccc(CN(C)CC(=O)NC(=O)NCc2ccco2)c1
21.4
CCNc1nc(OC)nc(Oc2ccc(=O)n(-c3ccccc3)n2)n1
2
Cc1c(Br)c(C(F)(F)F)nn1CC(=O)NCCN1CCOCC1
2.1

Respectfully, I request inhibition for each entry included below.
1. O=C(Oc1ccc(Cl)cc1N1C(=O)CCC1=O)c1ccco1
2. Cc1c2c(nc3nc4ccccc4n13)CC(C)(C)CC2=O
3. CCOc1ccc2[nH]c(=O)c(CN(Cc3ccccc3)C(=O)N3CCCC3)cc2c1
4. CCN(Cc1cc2cc(OC)ccc2[nH]c1=O)C(=O)c1ccncc1
5. O=c1c2c3nc4ccccc4nc3n(CC3CCCO3)c2ncn1CCc1ccccc1 (stereo unspecified)

[A]
1. 2.46
2. 4.43
3. -1.9
4. 9.05
5. -2.62

[Q] Consider the compound c1cc(-c2nc3ccccc3o2)nc(-c2nc3ccccc3o2)c1 and give its measured inhibition.
[A] 1.83

* * *

- Protocol: reversal of MRP1-mediated doxorubicin resistance, pilot screen, H69AR cells, doxorubicin co-treatment (AID 601)
- Recorded conditions: H69AR cells, CellTiter-Glo, 72 h; compound alone cytotoxicity; at 10 µM
Peptide text beside a SMILES is read from it. * marks the point of attachment. Boc = CC(C)(C)OC(=O)*
So I've got a bunch of compounds here, and I need their viability values.
Give bare numbers, in %.

Example entries begin here.
COc1cccc(-c2nnc(SCC(=O)N3CCCc4ccccc43)o2)c1
90.6
O=C(CCC(=O)N1CCc2ccccc2C1)N1CCN(S(=O)(=O)c2ccccc2)CC1
90.6
O=C(CSc1nc2ccccc2n1CC(=O)N1CCCC1)Nc1nccs1
95.3
CCN1C(=O)Cc2cc(S(=O)(=O)N3CCOCC3)ccc21
98
Cc1ccc(NC(=O)CSc2nnc(-c3cnccn3)n2Cc2ccco2)cc1C
104

Respectfully, I request viability for each entry included below.
1. Cc1cc(C(F)F)n2nc(C(=O)Nc3ccc(S(=O)(=O)N4CCCCCC4)cc3)nc2n1
2. CC(C)CC(NC(=O)OC(C)(C)C)C(=O)NC(C(=O)NC(C)C(N)=O)C(C)C (stereo not drawn) (Boc-Leu-Val-Ala-NH2; configuration not given here)
3. Cc1ccc(OC(=O)CCC(=O)OCCCC(F)(F)C(F)(F)F)cc1

[A]
1: 83.3; 2: 112; 3: 94.3

Respectfully, I request viability for each entry included below.
1. O=C(Nc1nccs1)NC(C(F)(F)F)C(F)(F)F
2. CC1C(O)=C(c2nc3ccccc3[nH]2)C(=N)N1c1ccccc1 (stereo not drawn)
3. C[N+]1=C2CCCCCN2C(O)(c2ccccc2)C1 (stereo not drawn)

[A]
1. 95.1
2. 16
3. 96.3

Respectfully, I request viability for each entry included below.
1. CCOC(=O)c1ccc(COC(=O)CCc2nc3ccccc3[nH]c2=O)o1
2. Cc1cccc(OCCCc2c(C)n[nH]c2C)c1

[A]
92.1
98.7

Respectfully, I request viability for each entry included below.
1. Cc1ccc(CCNC(=O)CC2Oc3ccc(C)cc3NC2=O)cc1 (stereo not drawn)
2. c1ccc(-n2cnc3cc(NCc4ccccn4)ccc32)cc1
3. COc1ccc(-c2cc3nc(C)c(CCC(=O)NCc4ccco4)c(C)n3n2)c(OC)c1
4. O=C(NCc1cccnc1)c1ccc(=O)oc1

[A]
96
86.4
85.8
83.4

Respectfully, I request viability for each entry included below.
1. COC(=O)CCC(=O)Nc1cccc(Cl)c1
2. CCc1nn2c(=O)cc(CSc3nc4sc5c(c4c(=O)n3C)CCCC5)nc2s1
3. CCC(=O)Nc1ccc(Cl)c(NC(=O)C(C)C)c1
4. O=C(NCC1CCCO1)C1CCN(c2ccc(S(=O)(=O)N3CCCC3)cc2)CC1 (stereo not drawn)
5. Cc1ccc(CNC(=O)C2CCCN(S(=O)(=O)c3cccnc3)C2)cc1 (stereo not drawn)
6. CCn1c(SCC(=O)N2CCOCC2)nc2c(c1=O)SC(C)C2 (stereo not drawn)
7. COc1ccc2nc(NC(=O)CSc3nnc(-c4ccoc4C)n3C)sc2c1

[A]
1. 85.4
2. 90
3. 111
4. 80
5. 99.6
6. 88
7. 84.8

Respectfully, I request viability for each entry included below.
1. COc1ccc2c(c1)C(C)=CC(C)(C)N2C(=O)CSc1nnc(-c2ccc(C)cc2)o1
2. CC1CCCN(C(=O)c2cc(F)c(F)cc2Cl)C1 (stereo not drawn)
3. Cc1cc(-n2c(C)cc(C(=O)CSc3nc4ccccc4c(=O)n3Cc3ccco3)c2C)no1
4. CC(C)CC(c1nnnn1C1CCCC1)N1CCN(c2ccccc2F)CC1 (stereo not drawn)
5. COCCN1C(=O)C(=O)/C(=C(/O)c2cccc(S(=O)(=O)N(C)C)c2)C12C(=O)N(C)c1ccccc12 (stereo not drawn)
6. CCn1cc(C(=O)O)c(=O)c2cc(F)c(N3CCN(C(=O)Nc4ccccc4)CC3)cc21
7. CN1C2C=C3C(C#N)=C(N)C(C#N)(C#N)[C@@H](c4ccc(Cl)cc4)[C@@H]3C1CC2 (stereo partly drawn)

[A]
[93.9, 89.2, 93.8, 84.2, 99.5, 79.5, 68.9]

Respectfully, I request viability for each entry included below.
1. CSc1nnc2n(CCc3ccccc3)c(=O)c3c4c(sc3n12)CCCC4
2. O=C(Nc1cccc(Cl)c1)N1CCN(c2ncccn2)CC1
3. C=CCc1cccc2cc(C(=O)NCc3cccnc3)c(=O)oc12
4. Cc1nc(CNS(=O)(=O)c2ccc3c(c2)OCCO3)cs1
5. O=C(CCSc1nc(-c2ccco2)cc(C(F)(F)F)n1)Nc1ccc2c(c1)OCO2
6. Cc1noc(C)c1S(=O)(=O)NCCN1CCN(c2ccccc2)CC1

[A]
102
104
95
96.6
78.4
96.1

Respectfully, I request viability for each entry included below.
1. CCOc1ccc2cc(C#N)c(SCC(=O)N3CCCC3)nc2c1
2. CCOC(=O)C(C)On1c(SC(C)C(=O)OCC)nc2ccccc2c1=O (stereo not drawn)

[A]
[87.3, 82.1]
